This collection of values is drawn from patent US4355170A.

Experiment: acute toxicity test, LD50 in mice
Settings: mouse, in vivo, iv
ENDPOINT: LD50 (mg/kg)
Express the result in mg/kg but write the number alone.

Prompt: What LD50 value was documented for this compound, CC(CCCCCn1ccnc1)C(C)C(=O)O.Cl (stereo not shown) ?
Completion: 330

====

Reported IC50 values are given for each entry in this list.
Target: thromboxane synthetase from rabbit platelet microsomes (Oryctolagus cuniculus, UniProt G1TAZ9)
Sequence (G1TAZ9 1-530): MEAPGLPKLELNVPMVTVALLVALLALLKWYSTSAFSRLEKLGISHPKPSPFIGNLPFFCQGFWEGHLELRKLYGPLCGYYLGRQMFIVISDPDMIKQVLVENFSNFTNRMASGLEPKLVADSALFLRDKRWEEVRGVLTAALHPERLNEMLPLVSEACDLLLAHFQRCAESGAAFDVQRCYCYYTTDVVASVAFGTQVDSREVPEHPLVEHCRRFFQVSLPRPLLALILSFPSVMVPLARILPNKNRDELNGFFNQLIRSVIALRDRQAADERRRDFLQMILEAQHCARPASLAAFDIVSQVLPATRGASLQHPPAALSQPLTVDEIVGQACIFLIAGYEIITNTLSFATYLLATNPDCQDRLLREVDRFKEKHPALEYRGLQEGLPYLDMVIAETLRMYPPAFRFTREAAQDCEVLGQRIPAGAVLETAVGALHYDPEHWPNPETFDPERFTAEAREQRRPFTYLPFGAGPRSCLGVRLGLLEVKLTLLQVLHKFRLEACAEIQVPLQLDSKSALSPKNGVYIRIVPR
Where a name gives a salt, the structure may show the parent alone.
Express the result in µM but write the number alone.

COMPOUND | UNIT OF MEASUREMENT | VALUE REPORTED
O=C(O)CCCC/C=C\Cn1ccnc1 [hydrochloride] | µM | 0.056
CC(C)(CCCCCCC(=O)O)n1ccnc1 [hydrochloride] | µM | 0.09
CCCCC(CCCn1ccnc1)C(=O)OCC (racemic) [1-[(4RS)-4-ethoxycarbonyloctyl]imidazole] | µM | 0.13

Prompt: What IC50 value was documented for this compound, O=C(O)/C=C\CCCCCn1ccnc1 [hydrochloride] ?
Completion: 0.016

Prompt: What IC50 value was documented for this compound, CC(CCCCCn1ccnc1)CC(=O)O (racemic) [hydrochloride] ?
Completion: 0.048

Prompt: What IC50 value was documented for this compound, "CCOC(=O)C(C)(C)CCCCCCn1ccnc1" ?
Completion: 1

Prompt: What IC50 value was documented for this compound, CC(CCCCCCn1ccnc1)C(=O)O.Cl (racemic) [hydrochloride] ?
Completion: 0.03

Prompt: What IC50 value was documented for this compound, CCOC(=O)C(C)CCCCCCn1ccnc1 (racemic) [1-[(7RS)-7-ethoxycarbonyloctyl]imidazole] ?
Completion: 0.2

Prompt: What IC50 value was documented for this compound, O=C(O)/C=C/CCCCCn1ccnc1 [hydrochloride] ?
Completion: 0.07

Prompt: What IC50 value was documented for this compound, "CCOC(=O)/C=C/CCCCCn1ccnc1" ?
Completion: 2.8

Prompt: What IC50 value was documented for this compound, CC(C)(CCCCn1ccnc1)CCC(=O)O [hydrochloride] ?
Completion: 0.071
